Test system: HCT-15
Square brackets hold non-standard residues; d marks the D form. Peptide text beside a SMILES is read from it. * marks the point of attachment. X26 = COC1=CC(=O)N(C(=O)[C@@H](O*)C(C)C)[C@H]1Cc1ccccc1; Bn2Val = CC(C)[C@@H](C(=O)*)N(Cc1ccccc1)Cc1ccccc1; NMeV = CN[C@H](C(=O)O)C(C)C; dNMeA = CN[C@H](C)C(=O)O

{"columns": ["molecule", "valueRelationSign", "GI50 (µM)"],
 "data": [
  ["CC(C)(C)OC(=O)C(C#N)C(=O)c1ccc(C(=O)O)[nH]1 (configuration not stated)", "=", 23.2],
  ["O=C(Oc1ccccc1)c1cc2cc(CCl)ccc2oc1=O", "=", 31.5],
  ["CC1N[B@@-](C)(c2ccc(C(F)(F)F)cc2)OC1c1ccccc1 (some centres not stated)", "=", 49.1],
  ["N/C(=C\\c1ccc(/C=C(\\NC(=O)c2ccccc2)c2nc3c([nH]2)C(=O)c2ccccc2C3=O)cc1)c1nc2c([nH]1)C(=O)c1ccccc1C2=O", "=", 13.9],
  ["CCOC(=O)C(C)(C)Oc1ccc2c(C)c(-c3ccc(Cl)cc3)c(=O)oc2c1", "=", 34.3],
  ["O=C(O)CCSCc1ccccc1", ">", 100],
  ["CCn1c(=O)c2nc(SC)sc2n(-c2ccc(C)cc2)c1=O", ">", 100],
  ["CC(C)(C)CN1[C@@H]2CCCC[C@H]2N(CC(C)(C)C)P1(=O)Cc1ccccc1", "=", 12],
  ["NC(=O)C(c1ccccc1)N1OC2C(=O)N(Cc3ccccc3)C(=O)C2C1c1cccc(Oc2ccc(Cl)cc2)c1 (configuration not stated)", "=", 30.4],
  ["CC(=O)O[C@H]1C(=O)[C@@]2(C)[C@H]([C@H](OC(=O)c3ccccc3)[C@]3(O)C[C@H](OC(=O)[C@H](O)[C@@H](NC(=O)C(C)(O)C(C)O)c4ccccc4)C(C)=C1C3(C)C)[C@]1(OC(C)=O)CO[C@@H]1C[C@@H]2O (some centres not stated)", "=", 17],
  ["CC(=O)OCc1ccc(O)c(C=O)c1", "=", 46.5],
  ["O=C(NC(=O)c1ccccc1[N+](=O)[O-])Nc1ccc(Oc2ncc(Cl)cn2)c([N+](=O)[O-])c1", "=", 0.0855],
  ["CC(/C=C/C(=O)NO)=C\\C(C)C(=O)c1ccc(N(C)C)cc1 (configuration not stated)", "=", 0.0313],
  ["CCC1(OC(C)=O)C(=O)OCc2c1cc1n(c2=O)Cc2cc3ccccc3nc2-1 (configuration not stated)", "=", 12.3],
  ["NCC(=O)Nc1ccc(Cl)cc1C(=O)c1ccc[nH]1", "=", 38.5],
  ["Cc1cc(/N=C/c2ccc(F)cc2)n(-c2ccccc2)n1", "=", 48.2],
  ["Oc1nc2nc3ccccc3nc2nc1O", ">", 100],
  ["O=C1C(Cl)=C(Cl)C(=O)N1c1ccc(Cl)c(Cl)c1Cl", "=", 31.1],
  ["Cc1ccc([N+](=O)[O-])cc1NC(=O)C(=O)C1CCC2=C(Sc3ccccc3N2)C1=O (configuration not stated)", ">", 100],
  ["COC1=CC(=O)N(C(=O)[C@@H](OC(=O)[C@@H](C)N(C)C(=O)[C@@H]2CCCN2C(=O)[C@H](C(C)C)N(C)C(=O)[C@@H](NC(=O)[C@H](C(C)C)N(Cc2ccccc2)Cc2ccccc2)C(C)C)C(C)C)[C@H]1Cc1ccccc1 (Bn2Val-V[NMeV]P[dNMeA]-X26)", ">", 100],
  ["N#C/C(=C\\NC(=S)c1ccncc1)c1nc2ccccc2s1", ">", 100],
  ["CC(=O)OC[C@@H](COC(=O)/C=C/c1ccc(O)cc1)OC1OC(CO)C(O)C(O)C1O (some centres not stated)", ">", 100],
  ["Cc1cccc2c(=O)c3cccc([C@@H](C)C(=O)O)c3oc12", ">", 100],
  ["O=C1C(=Cc2cccs2)C(=O)N(CCc2ccccc2)S(=O)(=O)N1CCc1ccccc1", ">", 50],
  ["NS(=O)(=O)c1ccc(/N=N/c2cnc(O)c(O)c2)cc1", ">", 100],
  ["CCCCCCCCCCOC(=O)NCCC", "=", 21],
  ["O=C(N/C(=C\\c1cccc([N+](=O)[O-])c1)c1nc2c3c(ccc2[nH]1)C(=O)c1ccccc1C3=O)c1ccccc1", "=", 15]
]}
